Biological target: UniProt P08183
Sequence (P08183 whole entry): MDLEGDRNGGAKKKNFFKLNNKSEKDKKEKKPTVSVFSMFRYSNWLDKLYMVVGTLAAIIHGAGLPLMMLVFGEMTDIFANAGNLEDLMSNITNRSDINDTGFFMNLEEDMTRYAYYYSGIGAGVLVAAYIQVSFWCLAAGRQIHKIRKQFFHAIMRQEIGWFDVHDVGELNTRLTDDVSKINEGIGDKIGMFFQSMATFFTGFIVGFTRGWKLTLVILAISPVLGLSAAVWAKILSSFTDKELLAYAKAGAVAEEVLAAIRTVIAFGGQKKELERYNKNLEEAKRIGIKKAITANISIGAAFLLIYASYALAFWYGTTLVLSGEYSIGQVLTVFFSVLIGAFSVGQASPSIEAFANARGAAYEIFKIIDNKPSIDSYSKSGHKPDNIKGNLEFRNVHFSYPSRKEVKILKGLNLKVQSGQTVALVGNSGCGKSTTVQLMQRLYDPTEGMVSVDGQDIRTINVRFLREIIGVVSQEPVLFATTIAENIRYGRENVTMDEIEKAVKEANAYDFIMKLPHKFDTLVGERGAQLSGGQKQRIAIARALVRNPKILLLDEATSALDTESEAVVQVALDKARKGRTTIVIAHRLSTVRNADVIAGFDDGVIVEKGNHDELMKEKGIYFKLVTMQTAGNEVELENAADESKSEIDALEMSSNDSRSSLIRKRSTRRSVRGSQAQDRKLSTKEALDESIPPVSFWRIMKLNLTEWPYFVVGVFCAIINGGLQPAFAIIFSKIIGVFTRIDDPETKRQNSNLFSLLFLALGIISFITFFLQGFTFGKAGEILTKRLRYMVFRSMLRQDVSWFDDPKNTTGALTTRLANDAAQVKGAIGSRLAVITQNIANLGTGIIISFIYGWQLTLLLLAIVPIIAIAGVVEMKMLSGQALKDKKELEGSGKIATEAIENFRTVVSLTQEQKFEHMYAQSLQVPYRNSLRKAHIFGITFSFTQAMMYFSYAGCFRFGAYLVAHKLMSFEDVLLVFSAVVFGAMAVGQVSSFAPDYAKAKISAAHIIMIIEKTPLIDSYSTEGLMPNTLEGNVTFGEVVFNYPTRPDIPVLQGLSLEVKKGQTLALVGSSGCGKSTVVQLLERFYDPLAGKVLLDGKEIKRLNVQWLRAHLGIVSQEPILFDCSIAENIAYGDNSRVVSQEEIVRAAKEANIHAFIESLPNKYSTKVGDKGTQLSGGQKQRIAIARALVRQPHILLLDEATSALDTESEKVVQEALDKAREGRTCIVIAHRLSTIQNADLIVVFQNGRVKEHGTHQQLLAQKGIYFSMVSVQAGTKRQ
Assay: MDCK assay P-gp: permeability across MDCK-MDR1 monolayers
Type: in vitro ADME
Conditions: MDCK-MDR1, apical-to-basal, pH 7.4
Method: The MDCK assays provide information on the potential of a compound to pass the blood brain barrier. Permeability measurements across polarized, confluent MDCK-MDR1 cell monolayers grown on permeable filter supports are used as an in vitro absorption model: apparent permeability coefficients (PE) of the compounds across the MDCK-MDR1 cell monolayers are measured (pH 7.4, 37° C.) in apical-to-basal (AB) and basal-to-apical (BA) transport direction. […]
REPORTED_PROPERTY: Papp A→B at 2 h (nm/s)

| COMPOUND_SMILES | U | Papp A→B at 2 h |
| --- | --- | --- |
| CNC(=O)[C@@H]1CN(Cc2cnc(Oc3ccc(C)cc3)cn2)CCO1 | nm/s | 750 |
| CNC(=O)[C@@H]1CN(Cc2cnc(Oc3ccc(Cl)cc3F)cn2)CCO1 | nm/s | 590 |
| CNC(=O)[C@@H]1CN(Cc2cnc(Oc3ccc(F)cc3)cn2)CCO1 | nm/s | 590 |
| CNC(=O)[C@@H]1CN(Cc2cnc(Oc3ccc(F)cc3C)cn2)CCO1 | nm/s | 700 |
| CNC(=O)[C@@H]1CN(Cc2cnc(Oc3ccccc3Cl)cn2)CCO1 | nm/s | 610 |
| CNC(=O)[C@@H]1CN(Cc2cnc(Oc3ccccc3F)cn2)CCO1 | nm/s | 620 |
| CNC(=O)[C@@H]1CN(Cc2cnc(Oc3ccc(C)cc3F)cn2)CCO1 | nm/s | 760 |
| CNC(=O)[C@@H]1CN(Cc2cnc(Oc3ccc(F)cc3F)cn2)CCO1 | nm/s | 710 |
| CCNC(=O)[C@@H]1CN(Cc2cnc(Oc3ccc(C)cc3F)cn2)CCO1 | nm/s | 660 |

* * *

target: NMDA NR1/NR2B receptor (Homo sapiens (Human)); assay: In vitro NMDA NR1/NR2B cell assay (FLIPR, intracellular calcium induced by glycine/glutamate); settings: HEK293 NR1/NR2B, 20 μM glycine / 1 μM glutamate, read-out: In vitro NR2B affinity, IC50
Sequence (Q13224 27-1484, other chains not shown): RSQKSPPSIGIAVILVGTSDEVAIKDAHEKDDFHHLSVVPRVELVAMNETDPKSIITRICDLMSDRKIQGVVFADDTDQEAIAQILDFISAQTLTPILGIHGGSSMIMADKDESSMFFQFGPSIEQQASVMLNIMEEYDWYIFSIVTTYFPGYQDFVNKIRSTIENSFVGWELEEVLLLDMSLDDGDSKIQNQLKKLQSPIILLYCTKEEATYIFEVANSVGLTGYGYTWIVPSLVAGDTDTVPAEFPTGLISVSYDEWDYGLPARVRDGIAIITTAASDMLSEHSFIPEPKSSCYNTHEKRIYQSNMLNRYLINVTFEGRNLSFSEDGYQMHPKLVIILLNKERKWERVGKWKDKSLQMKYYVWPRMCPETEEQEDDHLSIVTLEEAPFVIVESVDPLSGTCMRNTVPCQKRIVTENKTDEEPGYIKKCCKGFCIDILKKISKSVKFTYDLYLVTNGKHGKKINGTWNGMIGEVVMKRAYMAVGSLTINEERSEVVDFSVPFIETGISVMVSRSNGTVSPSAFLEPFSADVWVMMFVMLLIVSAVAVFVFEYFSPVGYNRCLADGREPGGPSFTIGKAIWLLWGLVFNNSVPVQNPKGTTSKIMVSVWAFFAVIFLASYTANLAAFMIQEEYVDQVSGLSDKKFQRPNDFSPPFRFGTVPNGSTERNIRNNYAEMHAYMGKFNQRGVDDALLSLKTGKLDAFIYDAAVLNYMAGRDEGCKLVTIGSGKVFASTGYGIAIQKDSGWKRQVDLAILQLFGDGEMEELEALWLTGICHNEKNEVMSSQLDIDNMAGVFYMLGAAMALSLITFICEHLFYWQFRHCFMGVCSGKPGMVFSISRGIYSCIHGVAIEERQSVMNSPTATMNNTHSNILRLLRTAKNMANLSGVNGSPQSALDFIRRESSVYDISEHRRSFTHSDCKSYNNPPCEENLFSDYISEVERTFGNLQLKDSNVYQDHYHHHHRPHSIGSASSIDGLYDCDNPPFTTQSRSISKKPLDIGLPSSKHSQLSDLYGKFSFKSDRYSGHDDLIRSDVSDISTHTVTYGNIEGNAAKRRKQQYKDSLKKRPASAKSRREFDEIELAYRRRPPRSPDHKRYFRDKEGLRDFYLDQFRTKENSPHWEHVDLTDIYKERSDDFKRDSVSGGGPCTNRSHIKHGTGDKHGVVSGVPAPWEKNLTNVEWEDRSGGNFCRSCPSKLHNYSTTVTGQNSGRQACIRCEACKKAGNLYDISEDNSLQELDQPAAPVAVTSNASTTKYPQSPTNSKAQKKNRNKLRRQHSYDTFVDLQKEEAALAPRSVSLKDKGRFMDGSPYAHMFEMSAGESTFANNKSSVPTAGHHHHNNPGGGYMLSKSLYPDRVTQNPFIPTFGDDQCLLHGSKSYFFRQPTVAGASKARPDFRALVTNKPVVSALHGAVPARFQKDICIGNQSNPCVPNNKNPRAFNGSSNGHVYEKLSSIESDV
REPORTED_PROPERTY: IC50 (nM)

These recorded examples may help you get a feel for the data.
| COMPOUND_SMILES | SYSTEM | REPORTED_PROPERTY | RECORDED_MEASUREMENT |
| --- | --- | --- | --- |
| CNC(=O)[C@@H]1CN(Cc2cnc(Oc3ccc(F)cc3C)cn2)CCO1 | NMDA NR1/NR2B receptor (Homo sapiens (Human)) | IC50 | 856 |
| CNC(=O)[C@@H]1CN(Cc2cnc(Oc3ccccc3)cn2)CCO1 | NMDA NR1/NR2B receptor (Homo sapiens (Human)) | IC50 | 644 |

A: CNC(=O)[C@@H]1CN(Cc2cnc(Oc3ccc(C)cc3)cn2)CCO1
B: CNC(=O)[C@@H]1CN(Cc2cnc(Oc3ccccc3F)cn2)CCO1
C: CNC(=O)[C@@H]1CN(Cc2cnc(Oc3ccc(Cl)cc3F)cn2)CCO1
In this exercise, place the 3 molecules in ascending sequence of their recorded IC50. A complete answer lists every label in the requested sequence.
C, B, A
(C: 110 nM, B: 210 nM, A: 690 nM)

* * *

Test: Metabolic stability in pooled human liver microsomes
Type: in vitro ADME
Settings: pH 7.6, 1 μM compound, 1 mg/mL microsomal protein, 37° C., NADPH, read-out: Half-life − t½ human liver microsomes
Protocol: Stability in human liver microsomes refers to the susceptibility of compounds to biotransformation in the context of selecting and/or designing drugs with favorable pharmacokinetic properties. The primary site of metabolism for many drugs is the liver. […] The metabolic degradation of the test compound was assayed at 37° C. with pooled human liver microsomes. […] The half-life was determined by the slope of the semi-logarithmic plot of the concentration-time profile.
In this section, each of the compounds is paired with its reported half-life at 1 µM.

These recorded examples may help you get a feel for the data.
| COMPOUND_SMILES | REPORTED_PROPERTY | RECORDED_MEASUREMENT |
| --- | --- | --- |
| CNC(=O)[C@@H]1CN(Cc2cnc(Oc3ccc(F)cc3F)cn2)CCO1 | half-life at 1 µM | > 2.17 h |
| CNC(=O)[C@@H]1CN(Cc2cnc(Oc3ccccc3Cl)cn2)CCO1 | half-life at 1 µM | > 2.17 h |

Entry under review: CNC(=O)[C@@H]1CN(Cc2cnc(Oc3ccc(F)cc3C)cn2)CCO1 . Reported half-life at 1 µM?
> 2.17 h
